Target: UniProt:P22460
Assay: Kv1.5 Autopatch Electrophysiology (whole cell patch-clamp)
Type: cell-based
Settings: compound at 1µM, room temperature (22-24°C), held at -80mV, step to 0mV for 1000ms, total charge measured
Protocol: The external bathing solution contained (in mM): 150 NaCl, 10 KCl, […], 3 MgCl2, 1 CaCl2, 10 HEPES, pH 7.4. Patch pipettes were filled with an electrode solution of composition (in mM): 160 KCl, 0.5 MgCl2, 10 HEPES, 1 EGTA, pH 7.4 with KOH. […] Electrophysiology voltage-step protocols and analysis of data was performed as follows. […] Currents were analysed using Pulsefit software (v8.54, HEKA, Germany), with the total charge measured during the whole of the voltage step. […]
reported_endpoint: inhibition at 1 µM (%)
Form entry: value (%) — number only.

Examples from the recorded data:
CC(C)c1nc(NCc2ccccn2)c2c(-c3ccccc3)csc2n1 ... 88
Cc1nc(NCc2ccccn2)c2c(-c3ccc(F)cc3)csc2n1 ... 92.2
Clc1ccc(-c2csc3ncnc(NCc4ccccn4)c23)cc1 ... 90.8

Read the next record carefully.
Write down the reported inhibition at 1 µM (system: UniProt:P22460) of `c1ccc(COc2nc(NCc3ccco3)c3c(-c4ccccc4)csc3n2)cc1`
90

====

Biological target: human Kv1.5 (Homo sapiens, UniProt P22460)
Sequence (P22460 whole entry): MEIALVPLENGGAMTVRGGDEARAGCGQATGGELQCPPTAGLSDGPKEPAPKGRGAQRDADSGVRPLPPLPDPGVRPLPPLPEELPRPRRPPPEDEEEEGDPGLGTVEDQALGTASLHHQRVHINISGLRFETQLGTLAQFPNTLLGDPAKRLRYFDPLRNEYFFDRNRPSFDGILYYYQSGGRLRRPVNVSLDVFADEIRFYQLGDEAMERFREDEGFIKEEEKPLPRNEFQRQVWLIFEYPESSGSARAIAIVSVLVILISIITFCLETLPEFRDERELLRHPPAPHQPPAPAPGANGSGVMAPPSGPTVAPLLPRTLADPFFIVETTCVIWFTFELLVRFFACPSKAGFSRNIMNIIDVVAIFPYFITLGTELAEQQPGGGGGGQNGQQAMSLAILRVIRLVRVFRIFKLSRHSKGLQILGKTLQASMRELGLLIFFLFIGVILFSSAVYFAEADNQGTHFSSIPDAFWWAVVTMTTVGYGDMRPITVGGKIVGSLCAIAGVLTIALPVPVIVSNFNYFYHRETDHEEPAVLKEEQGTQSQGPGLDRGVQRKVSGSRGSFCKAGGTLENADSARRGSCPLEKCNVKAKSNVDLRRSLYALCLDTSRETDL
Experiment: Kv1.5 Rb+ Efflux Assay
Settings: inhibition of 86Rb+ efflux through Kv1.5; cells stably transfected with human Kv1.5; 10 point concentration response curves n=2; normalised to 2.5mM 4 amino-pyridine block
Description: The pore of a potassium channel is permeable to other monovalent cations such as Rb^+ and Tl^+. Analysis of cellular efflux of potassium channel permeable ions enables potassium channel activity to be monitored directly. […] After the final incubation 80µl/100µl of the reaction from each well was transferred to equivalent wells in a Packard "Optiplate" white 96 well plate and counted in a Packard TopCount liquid scintillation counter by Cerenkov emission. […]
Let's look at some compounds and their measured pIC50.
Keep it numeric: pIC50 is minus log10 of the concentration in mol/L.

Examples from the recorded data:
OCCNc1nc(NCc2ccccn2)c2c(-c3ccc(F)cc3)csc2n1 ... 5.12
Brc1ccc(-c2csc3ncnc(NCCc4ccc5c(c4)OCCO5)c23)cc1 ... 4.97

Read the next record carefully.
Give the reported value of pIC50 for this record: `c1ccc(-c2csc3ncnc(NCCc4cccs4)c23)cc1`
5.07
